Exercise: state measured Potency for each of the compounds provided.
experiment: Identification of antibody-drug conjugate (ADC) payloads which are substrates of ATP-binding cassette drug efflux transporters: ABCB1-HeLa-KB-3-1 cell line; conditions: KB-3-1 (HeLa derivative) viability, CellTiter-Glo, 48 h
Inconclusive results are not listed. Activity calls are given as the source filed them. Calls follow the shape of the dose curve; as a rule, active = well fitted inhibition curve with a large enough effect; inconclusive = small, poorly fitted or top-dose-only effect; inactive = flat fitted curve, though single readings scatter.

Completed entries (count: 3):
{"compound": "COc1cccc2c1C(=O)c1c(O)c3c(c(O)c1C2=O)C[C@@](O)(C(=O)CO)CC3OC1CC(N2CCOC(OC)C2)C(O)C(C)O1 (some centres undefined)", "value_observed": "11.8 nM (active)"}
{"compound": "CC[C@H](C)[C@@H]([C@@H](CC(=O)N1CCC[C@H]1[C@H](OC)[C@@H](C)C(=O)N[C@H](C)[C@@H](O)c1ccccc1)OC)N(C)C(=O)[C@@H](NC(=O)[C@H](C(C)C)N(C)C)C(C)C", "value_observed": "0.2 nM (active)"}
{"compound": "COc1cc2cc(C(=O)N3C[C@@H](CCl)c4c3cc(O)c3ccccc43)[nH]c2c(OC)c1OC", "value_observed": "1.3 nM (active)"}

Continue with the compound presented below.
If you can, please state the reported Potency value of "CC[C@H](C)[C@H](NC(=O)[C@H]1CCCCN1C)C(=O)N(C)[C@H](C[C@@H](OC(C)=O)c1nc(C(=O)O)cs1)C(C)C" .
472 nM (active)

====

Consider the following compounds; for each one, report its Potency.
Assay: Identification of antibody-drug conjugate (ADC) payloads which are substrates of ATP-binding cassette drug efflux transporters: ABCB1-HeLa-KB-3-1 cell line
Settings: KB-3-1 (HeLa derivative) viability, CellTiter-Glo, 48 h
Excerpt: Antibody-drug conjugates (ADCs) feature an antibody recognizing a specific protein joined to a potent toxic payload. Numerous antibody-drug conjugates have received FDA approval; however, clinical resistance arises. Resistance mechanisms include decreased expression or mutation of the antibody target, impaired payload release, or increased expression of ATP-binding cassette (ABC) efflux transporters associated with multidrug resistance. […]
Results filed as inconclusive are left out. Calls of active or inactive are those of the source. Calls come from the whole dose curve; as a rule, active = well fitted inhibition curve with a large enough effect; inconclusive = small, poorly fitted or top-dose-only effect; inactive = flat fitted curve, though single readings scatter. Where a SMILES comes first, the peptide text is derived from it. [ ]: non-standard residue; d: D form. The star is where a group is joined. Dolaproine = CO[C@@H]([C@@H]1CCCN1)[C@@H](C)C(=O)O; Dil = CC[C@H](C)[C@H](NC)[C@@H](CC(=O)O)OC; NMe2Val = CC(C)[C@@H](C(=O)*)N(C)C; X1 = C[C@@H](N*)[C@@H](O)c1ccccc1; NMeV = CN[C@H](C(=O)O)C(C)C

{"compound": "CC[C@@]1(O)C(=O)OCc2c1cc1n(c2=O)Cc2cc3ccccc3nc2-1", "Potency": "0.334 µM (active)"}

Parameters: items (list). Returns: Potency for each item.
1. CC[C@H](C)[C@@H]1NC(=O)CNC(=O)[C@H]2Cc3c([nH]c4cc(O)ccc34)S(=O)C[C@H](NC(=O)CNC1=O)C(=O)N[C@@H](CC(N)=O)C(=O)N1C[C@H](O)C[C@H]1C(=O)N[C@@H]([C@@H](C)[C@@H](O)CO)C(=O)N2 (some centres undefined)
2. CC[C@H](C)[C@@H]([C@@H](CC(=O)N1CCC[C@H]1[C@H](OC)[C@@H](C)C(=O)N[C@@H](Cc1ccccc1)C(=O)O)OC)N(C)C(=O)[C@@H](NC(=O)[C@H](C(C)C)N(C)C)C(C)C (NMe2Val-V[Dil][Dolaproine]F-OH)

["5.29 µM (active)", "0.0334 µM (active)"]

Could you tell me which Potency is on file for CC[C@H](C)[C@@H]([C@@H](CC(=O)N1CCC[C@H]1[C@H](OC)[C@@H](C)C(=O)N[C@H](C)[C@@H](O)c1ccccc1)OC)N(C)C(=O)[C@@H](NC(=O)[C@@H](NC)C(C)C)C(C)C (H-[NMeV]V[Dil][Dolaproine]-X1) ?
0.0003 µM (active)
